targetOrTestSystem: human BACE1 (Homo sapiens, UniProt P56817)
Sequence (P56817 46-501): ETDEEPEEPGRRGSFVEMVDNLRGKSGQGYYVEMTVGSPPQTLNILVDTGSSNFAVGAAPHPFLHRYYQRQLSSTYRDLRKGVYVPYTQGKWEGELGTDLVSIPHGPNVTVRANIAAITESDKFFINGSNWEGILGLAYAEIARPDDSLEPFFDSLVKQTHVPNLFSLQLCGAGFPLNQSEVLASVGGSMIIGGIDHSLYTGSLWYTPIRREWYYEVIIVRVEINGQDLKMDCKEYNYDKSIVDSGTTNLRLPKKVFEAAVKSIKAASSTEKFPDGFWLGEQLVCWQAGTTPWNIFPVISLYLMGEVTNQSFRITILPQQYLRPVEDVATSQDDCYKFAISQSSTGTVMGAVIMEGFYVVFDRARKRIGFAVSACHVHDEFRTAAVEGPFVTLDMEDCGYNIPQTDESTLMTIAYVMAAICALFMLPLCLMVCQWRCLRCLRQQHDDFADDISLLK
method: Fluorescent kinetic assay (BACE-1, FRET peptide substrate WABC-6)
Assay type: biochemical
experimentalConditions: 10 nM enzyme, 25 μM substrate WABC-6, 50 mM Na-Acetate pH 4.5, room temperature
Method: Evaluation of BACE-1 Binding Affinity of Test Compounds 1. […] Concentration is determined by absorbance at 354 nm using an extinction coefficient ε of 18172 M^−1 cm^−1, the concentration of stock substrate is corrected, and the substrate stock stored in small aliquots in −80° C. […]
measuredMetric: IC50 (µM)
# unit: µM | format: bare number

INSERT INTO measurements (molecule, endpointresult) VALUES
  ('CC(C)(C)c1ccc(-c2cccc(-c3ccccc3)c2CC(=O)NC(=N)N)cc1', 13.9),
  ('N=C(N)NC(=O)Cc1c(-c2ccccc2)cccc1-c1ccccc1.O=C(O)C(F)(F)F [Example 1, TFA salt]', 15),
  ('N=C(N)NC(=O)Cc1c(-c2ccccc2)cccc1-c1ccc2ccccc2c1', 29.6);

Now turn to the next molecule.
Task item: State the recorded IC50 for this entry: "NC(N)=NC(=O)Cc1c(-c2ccccc2)cccc1-c1ccc(Oc2ccccc2)cc1"
Reply: 5.95
